B1: glmS ribozyme (parent)
chain: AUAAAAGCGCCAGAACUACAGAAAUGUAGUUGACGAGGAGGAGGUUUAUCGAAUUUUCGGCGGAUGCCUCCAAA

# Variants of: B1
# ASSAY_REMARKS: self-cleavage kobs at 2500 uM GlcN6P; higher = faster cleavage; RNA array
# DETAILS: with glucosamine-6-phosphate
Variants at the floor of the assay were thinned out.
# self-cleavage kobs at 2500 uM GlcN6P per entry

>  <PRIMARY_SEQUENCE>
AUAAAAGCGCCAGAACUACAGAAAUGUAGUUCUCGAGGAUGAGGUUUAUCGAAUUUUCGGCGGAUGCCUCCAAA [G32C A33U G40U]

>  <self-cleavage kobs at 2500 uM GlcN6P>
< 1e-05 s⁻¹

$$$$
>  <PRIMARY_SEQUENCE>
AUAAAAGCGCCAGUACUACAGAAAUGUAGUUGACGAGGAGGAGGUUUAUUGAAUUUUCGGCGCAUGCCUCCAAA [A14U C50U G63C]

>  <self-cleavage kobs at 2500 uM GlcN6P>
< 1e-05 s⁻¹

$$$$
>  <PRIMARY_SEQUENCE>
AUAAAAGCGCCAAAACUACAGAAAUGUAGUUGACGGGGAGGAGUUUUAUCGAUUUUUCGGCGGAUGCCUCCAAA [G13A A36G G44U A53U]

>  <self-cleavage kobs at 2500 uM GlcN6P>
< 1e-05 s⁻¹

$$$$
>  <PRIMARY_SEQUENCE>
AUAAAAGCGCCAGAACUACAGAAAUGUAGUUGACGACCAUGAGGUUUAUCGAAUAUUCGGCGGAUGCCUCCAAA [G37C G38C G40U U55A]

>  <self-cleavage kobs at 2500 uM GlcN6P>
< 1e-05 s⁻¹

$$$$
>  <PRIMARY_SEQUENCE>
AUAAAAGCGCCAGAACUACAGAAAUGUAGUUGACGAGGAGGAGGUUUAUCGGUUUUUCGGCGGAUCGCUCCAAA [A52G A53U G66C C67G]

>  <self-cleavage kobs at 2500 uM GlcN6P>
< 1e-05 s⁻¹

$$$$
>  <PRIMARY_SEQUENCE>
AUAAAAGCGCCAGAACUACAGAAAUGUAGUUGACGAGGAGGAGGCUUAUCGAAUUUUCGACGCAUGCCUCCAAA [U45C G60A G63C]

>  <self-cleavage kobs at 2500 uM GlcN6P>
< 1e-05 s⁻¹

$$$$
>  <PRIMARY_SEQUENCE>
ACAAAAGCGCCAGAACUACAGAAAUGUAGUUGACGAGGAGGAGGUUUAUCGAAUUUUCGGGGGAUGCCUCCAAA [U2C C61G]

>  <self-cleavage kobs at 2500 uM GlcN6P>
< 1e-05 s⁻¹

$$$$
>  <PRIMARY_SEQUENCE>
AUAAAAGCGCCACAACUACAGAAAUGUAGUUGACGAGGAGGAGUUUUAUCGAAUUUUCGGCGGAUGCCUCCAAA [G13C G44U]

>  <self-cleavage kobs at 2500 uM GlcN6P>
< 1e-05 s⁻¹

$$$$
>  <PRIMARY_SEQUENCE>
AUAAAUGCGCCAGAACUACAGAAAUGUAGUUGAGGAGGAGGAGGUUUAUCGAAUUUUCGGCGGAUGCCUCCAAA [A6U C34G]

>  <self-cleavage kobs at 2500 uM GlcN6P>
< 1e-05 s⁻¹

$$$$
>  <PRIMARY_SEQUENCE>
AUAAAAGCGCUAGAACUACAGAAAUGUAGUUGACGAGGAAGAGGUUUACCGAAUUUUCCGCGGAUGCCUCCAAA [C11U G40A U49C G59C]

>  <self-cleavage kobs at 2500 uM GlcN6P>
< 1e-05 s⁻¹

$$$$
>  <PRIMARY_SEQUENCE>
AUAAAAGCGCCAGAACUACAGAAAUGUAGUUGAAGAGGUGAAGGUUUAUCGAAAUUUCGGCGGAUGCCUCCAAA [C34A A39U G41A U54A]

>  <self-cleavage kobs at 2500 uM GlcN6P>
< 1e-05 s⁻¹

$$$$
>  <PRIMARY_SEQUENCE>
AUAAAAGCGCCCGAACUACAGAAAUGUAGCUGACGAGGUGGAGGUUUAUCGAAUUUUCGGCGGAUGCCUCCAAA [A12C U30C A39U]

>  <self-cleavage kobs at 2500 uM GlcN6P>
0.000452 s⁻¹

$$$$
>  <PRIMARY_SEQUENCE>
AUAAAAGAGGCAGAACUACAGAAAUGUAGUUGACGAGGAGGAGGUUUAUCGAAUUUUCGGCGGAUGCCUCCAAA [C8A C10G]

>  <self-cleavage kobs at 2500 uM GlcN6P>
< 1e-05 s⁻¹

$$$$
>  <PRIMARY_SEQUENCE>
AUAAAAGCGCCUGAACUACAGAAAUGUAGUUCACGAGGAUGAGGCUUAUCGAAUUUUCGGCGGAUGCCUCCAAA [A12U G32C G40U U45C]

>  <self-cleavage kobs at 2500 uM GlcN6P>
< 1e-05 s⁻¹

$$$$
>  <PRIMARY_SEQUENCE>
AUAAAAGCGCCAUAACUACAGAAAUGUAGUUGACGAGGAGGACGUUUAUCGAAUUUUCGGCGGAUGUCUCCAAA [G13U G43C C67U]

>  <self-cleavage kobs at 2500 uM GlcN6P>
< 1e-05 s⁻¹

$$$$
>  <PRIMARY_SEQUENCE>
AUAAAAGCGCCAGAACUACAGAAAUGUAGUUGACGAGGAGGAGGCUUAUCGAAUUUUCGGCGGAGGCCUCCAAA [U45C U65G]

>  <self-cleavage kobs at 2500 uM GlcN6P>
0.000188 s⁻¹

$$$$
>  <PRIMARY_SEQUENCE>
AUAAAAGCGCUAGAACUACAGAAAUGUAGUUCACGGGGAGGAGGUUUAUCGAAUUUUCGGCGGAUGCCUCCAAA [C11U G32C A36G]

>  <self-cleavage kobs at 2500 uM GlcN6P>
< 1e-05 s⁻¹

$$$$
>  <PRIMARY_SEQUENCE>
AUAAAAGCGCCAGAACUACAGAAAUGUAGUUGACGAUGAGGAGUUUUAUCGAAAUUUCGGCGGAUGCCUCCAAA [G37U G44U U54A]

>  <self-cleavage kobs at 2500 uM GlcN6P>
< 1e-05 s⁻¹

$$$$
>  <PRIMARY_SEQUENCE>
AUAAAAGCGCCAGAACUACAGAAAUGUAGUUAACGAGGAGGAGGUUUAUCGAAUUGUCGGCGGAUGCCUCCAAA [G32A U56G]

>  <self-cleavage kobs at 2500 uM GlcN6P>
0.000254 s⁻¹

$$$$
>  <PRIMARY_SEQUENCE>
AUAAAAGCGCCAGAACUACAGAAAUGUAGUUGACGAGGAGGAGGUUUAUCGAAUUUUCGGCGGGUACCUCCAAA [A64G G66A]

>  <self-cleavage kobs at 2500 uM GlcN6P>
0.0124 s⁻¹

$$$$
>  <PRIMARY_SEQUENCE>
AUAAAAUCGCCAGAACUACAGAAAUGUAGUUGACGAGGAGGAGGUUUAUGGAAUUUUCGGCGGAUGCGUCCAAA [G7U C50G C68G]

>  <self-cleavage kobs at 2500 uM GlcN6P>
0.000185 s⁻¹

$$$$
>  <PRIMARY_SEQUENCE>
AUAAAAGCGCCGGAACUACAGAAAUGUAGUUGACGAGGAGGAGGUUUAUCGGAUUUUCGGCGGAUGCCUCCAAA [A12G A52G]

>  <self-cleavage kobs at 2500 uM GlcN6P>
5.02e-05 s⁻¹

$$$$
>  <PRIMARY_SEQUENCE>
AUAAAAGCGCCAGAACUACAGAAAUGUAGUUGACGAGGAGGAUGUUUAUCGAAUUUUCGGCGGAUGCCUGAAAA [G43U C70G C71A]

>  <self-cleavage kobs at 2500 uM GlcN6P>
< 1e-05 s⁻¹

$$$$
>  <PRIMARY_SEQUENCE>
AUAAAAGCGCCUGAACUACAGAAAUGUAGUUGACGAGGAGGAGGUUUAUCGAAUUAUCGGCGGAGGCCUCCAAA [A12U U56A U65G]

>  <self-cleavage kobs at 2500 uM GlcN6P>
0.00177 s⁻¹

$$$$
>  <PRIMARY_SEQUENCE>
AUAAAAGCGCCAGAACUACAGAAAUGUAGUAAACGAGGAGGAGGUUUAUCGAAUUUUCGGCGGGUGCCUCCAAA [U31A G32A A64G]

>  <self-cleavage kobs at 2500 uM GlcN6P>
0.000169 s⁻¹

$$$$
>  <PRIMARY_SEQUENCE>
AUAAACGCGCCAGAACUACAGAAAUGUAGUUGACGAGAAGGAGGUUUAUGGAAUUUUCGGCGGAUGUCUCCAAA [A6C G38A C50G C67U]

>  <self-cleavage kobs at 2500 uM GlcN6P>
7.23e-05 s⁻¹

$$$$
>  <PRIMARY_SEQUENCE>
AUAAAAGCGCCAGUACUACAGAAAUGUAGUUAACGAGUAGGAGGUUUAUGGAAUUUUCGGCGGAUGCCUCGAAA [A14U G32A G38U C50G C71G]

>  <self-cleavage kobs at 2500 uM GlcN6P>
0.000179 s⁻¹

$$$$
>  <PRIMARY_SEQUENCE>
AUAAAAGGGCCAGAACUACAGAAAUGUAGUUGACGAGGAGGAGGUUUAUCGAACUUUCGACGGAUGCCUCCAAA [C8G U54C G60A]

>  <self-cleavage kobs at 2500 uM GlcN6P>
< 1e-05 s⁻¹

$$$$
>  <PRIMARY_SEQUENCE>
AUAAAAGCCCCAGAACUACAGAAAUGUAGUUGACGAGGAGGAGGUUUAUCGAAUUUUCGGCGGAUGGCUCCAAA [G9C C67G]

>  <self-cleavage kobs at 2500 uM GlcN6P>
< 1e-05 s⁻¹

$$$$
>  <PRIMARY_SEQUENCE>
AUAAAAGCGCCAGAACUACAGAAAUGUAGUUGACGAGGAGGAGGUUUAUCGAAUUAUCGGCGGAUGCUUCCAAA [U56A C68U]

>  <self-cleavage kobs at 2500 uM GlcN6P>
0.00101 s⁻¹

$$$$
>  <PRIMARY_SEQUENCE>
AUAAAAGCGCCACGACUACAGAAAUGUAGUUGACGAGGAGGAGGUUUAUCGAAUUUUCGGCGGAUGCCUCCAAA [G13C A14G]

>  <self-cleavage kobs at 2500 uM GlcN6P>
0.000557 s⁻¹

$$$$
>  <PRIMARY_SEQUENCE>
AUAAAAGCGCCAGAACUACAGAAAUGUAGUUGACGAGGAGGUGGUUUAUCGAAUUUUCGGCGGAUGACGCUAAA [A42U C67A U69G C71U]

>  <self-cleavage kobs at 2500 uM GlcN6P>
7.23e-05 s⁻¹

$$$$
>  <PRIMARY_SEQUENCE>
AUAAAAGCGCUAGAACUACAGAAAUGUAGUUGACGAGGAGGAGGUUUAUCGAAAUUUCGGCGGAUGCCUCCAAA [C11U U54A]

>  <self-cleavage kobs at 2500 uM GlcN6P>
0.00164 s⁻¹

$$$$
>  <PRIMARY_SEQUENCE>
AUAAAAGCGCCAGAAAUACAGAAAUGUAGUUGUCGAGCAGGAGGUUUAUCGAAUUUUCGGCGGAUGCCUCCAAA [C16A A33U G38C]

>  <self-cleavage kobs at 2500 uM GlcN6P>
< 1e-05 s⁻¹

$$$$
>  <PRIMARY_SEQUENCE>
AUAAAUGCGCCAGAACUACAGAAAUGUAGUUGACGAGGAUGAGGUUUAUCGAAUUUUCGGCGGACGCUUCCAAA [A6U G40U U65C C68U]

>  <self-cleavage kobs at 2500 uM GlcN6P>
< 1e-05 s⁻¹

$$$$
>  <PRIMARY_SEQUENCE>
AUAAAAGCGCCAAAACUACAGAAAUGUAGUUGACUAGGAGGAGGUUUAUCGAAUUUUCGGCGGAUUGCUCCAAA [G13A G35U G66U C67G]

>  <self-cleavage kobs at 2500 uM GlcN6P>
< 1e-05 s⁻¹

$$$$
>  <PRIMARY_SEQUENCE>
AUAAAAGCGCCAGAACUACAGAAAUGUAGUUGACGAGGAGAAGGUUUAUCGAAUUUUCGGCGUAGGCCUUCAAA [G41A G63U U65G C70U]

>  <self-cleavage kobs at 2500 uM GlcN6P>
< 1e-05 s⁻¹

$$$$
